- TEST: NS1 protein of Zika virus - qHTS assay to identify small molecule inhibitors in human HEK 293 cells (AID 1347053); further: nearly all actives have a fitted effect of over 55% in size
- CONDITION DESCRIPTION: HEK293 ZIKV MR766 infection, NS1 TR-FRET, 24 h; series mostly up to 46.1 µM
Results filed as inconclusive are left out. The source made the active and inactive calls. The call rests on the fitted dose curve; in most records, active means well fitted inhibition curve with a large enough effect; inconclusive means small, poorly fitted or top-dose-only effect; inactive means no such curve, though single readings can be large or run the other way.
Entry note: the call must match one of active, inactive

Answered examples (5):
1) C[C@](Cc1c[nH]c2ccccc12)(NC(=O)OC1C2CC3CC(C2)CC1C3)C(=O)NC[C@H](NC(=O)CCC(=O)O)c1ccccc1 (stereo partly specified)
inactive
2) CCc1nc(-c2cccc(C)c2)c(-c2ccnc(NC(=O)c3ccccc3)c2)s1
active
3) CN(C)CC[C@H](c1ccc(Cl)cc1)c1ccccn1
inactive
4) CC(C)(C)[N+]([O-])=Cc1ccc(S(=O)(=O)O)cc1S(=O)(=O)O
inactive
5) CC(=O)OC[C@@H]1O[C@@H](n2ccc(=O)[nH]c2=O)[C@H](OC(C)=O)[C@H]1OC(C)=O
inactive

Kindly provide the recorded test outcome for the following molecule: COc1cc2c(Nc3ccc(Cl)c(Cl)c3F)ncnc2cc1OCC1C[C@@H]2CN(C)C[C@H]2C1
inactive

Kindly provide the recorded test outcome for the following molecule: COc1cc(OC)c(C=CS(=O)(=O)Cc2ccc(OC)c(NCC(=O)O)c2)c(OC)c1
active

Kindly provide the recorded test outcome for the following molecule: CCc1c(O)cc(O)c(C(=O)c2ccc(OCCN3CCOCC3)c(OC)c2)c1CC(=O)N(CCOC)CCOC
inactive

This collection of values is drawn from PubChem BioAssay (NCATS).
